pEC50 overview
# Assay remarks: Activity at HCMV US28 receptor assessed as receptor-mediated inositol phosphate response
# Parameters: species or system Human betaherpesvirus 5
pEC50: −log10 of the molar value.
Property name: pEC50

Compound	Measured number
NC1c2ccccc2CCC1Cc1ccc(Cl)cc1Cl (centres undefined)	4.90
OC1(c2ccc(Cl)cc2)CCN(C2c3ccccc3CC2Cc2ccc(Cl)cc2Cl)CC1 (centres undefined)	5.22
CC(Cc1ccccc1)NCCC1c2ccccc2-c2ccccc21 (centres undefined)	4.96
Cc1ccc(CC2Cc3ccccc3C2N)c(C)c1 (centres undefined)	4.86

----------
# Assay remarks: Displacement of [125I]CCL5 from HCMV US28 receptor
# Set-up: species or system Human betaherpesvirus 5
One threshold, 5 µM, splits the recorded IC50 values: lower ones are Criterion met, equal or higher ones are Criterion not met.

Molecule	Classification
C1=Cc2ccccc2C(OC2CC3CCC(C2)N3C2CCCCC2)c2ccccc21 (stereo not given)	Criterion not met
OC1(c2ccc(Cl)cc2)CCN(CCOC(c2ccccc2)c2ccc(F)cc2)CC1 (stereo not given)	Criterion met
c1ccc(CN2C3CCC2CC(OC2c4ccccc4CCc4ccccc42)C3)cc1 (stereo not given)	Criterion not met
CCCCCCCCN1C2CCC1CC(OC1c3ccccc3CCc3ccccc31)C2 (stereo not given)	Criterion not met
NC1c2ccccc2CC1Cc1ccccc1 (stereo not given)	Criterion not met
OC1(c2ccc(Cl)cc2)CCN(CCCN(Cc2ccccc2)c2ccccc2)CC1	Criterion met
COc1ccc(CC2Cc3ccccc3C2N)cc1 (stereo not given)	Criterion not met
CSc1ccc2c(c1)C(OCCN1CCC(O)(c3ccc(Cl)cc3)CC1)Cc1ccccc1S2 (stereo not given)	Criterion not met
c1ccc(CCN2C3CCC2CC(OC2c4ccccc4CCc4ccccc42)C3)cc1 (stereo not given)	Criterion not met
CC(Cc1ccc(Cl)cc1)NCCC1=C2C=CC=CC2Sc2ccccc21 (stereo not given)	Criterion met
CC(Cc1ccccc1)NCCC1c2ccccc2-c2ccccc21 (stereo not given)	Criterion not met
CN1CCN(C2c3ccccc3CC2Cc2ccc(Cl)cc2Cl)CC1 (stereo not given)	Criterion not met
COc1ccc(CC2Cc3ccccc3C2N)c(OC)c1 (stereo not given)	Criterion not met
CC(Cc1ccccc1)NCC=C1c2ccccc2CCc2ccccc21 (stereo not given)	Criterion met
O=C(CCN1CCN(CCO)CC1)N1Cc2ccccc2CCc2ccccc21	Criterion not met
OC1(c2ccc(Cl)cc2)CCN(CCCN2Cc3ccccc3CCc3ccccc32)CC1	Criterion met
OC1(c2ccc(Cl)cc2)CCN(CCOC(c2ccccc2)c2ccccc2)CC1	Criterion met
Clc1ccc(CC2Cc3ccccc3C2N2CCCCC2)c(Cl)c1 (stereo not given)	Criterion not met
NCC(OC(c1ccccc1)c1ccc(Cl)cc1Cl)c1ccccc1 (stereo not given)	Criterion not met
OC1(c2ccc(Cl)cc2)CCCN(CCCN2Cc3ccccc3CCc3ccccc32)C1 (stereo not given)	Criterion met
CC(Cc1ccccc1)NCC=C1c2ccccc2-c2ccccc21 (stereo not given)	Criterion not met
NC1c2ccccc2CCCC1Cc1ccc(Cl)cc1Cl (stereo not given)	Criterion not met
CC(Cc1ccccc1)NCCC1c2ccccc2CCc2ccccc21 (stereo not given)	Criterion met
COc1ccccc1CC1Cc2ccccc2C1N (stereo not given)	Criterion not met
C=C[C@H]1CN2CC[C@@H]1C[C@H]2C(OC(=O)c1ccc(C)cc1)c1ccnc2ccccc12 (stereo not given in full)	Criterion met
CC(C)(C)c1ccc(C(OC(CN)c2ccccc2)c2ccccc2)cc1 (stereo not given)	Criterion not met
CC(=O)Nc1ccc(CC2Cc3ccccc3C2N)cc1 (stereo not given)	Criterion not met
Cc1ccc(CC2Cc3ccccc3C2N)c(C)c1 (stereo not given)	Criterion not met
OC1(c2ccc(Cl)cc2)CCN(CCCC(c2ccc(F)cc2)c2ccc(F)cc2)CC1	Criterion met
NC(CCc1ccc(Cl)c(Cl)c1)c1ccc(Cl)c(Cl)c1 (stereo not given)	Criterion not met
CCc1ccccc1C1(OCCN(C)Cc2cccc(C)c2)CCCCC1C (stereo not given)	Criterion not met
OCCN1CCN(CCCN2Cc3ccccc3CCc3ccccc32)CC1	Criterion met
CC(Cc1cccc(C(F)(F)F)c1)NCCc1c2ccccc2nc2ccccc12 (stereo not given)	Criterion not met
OC1(c2ccc(Cl)cc2)CCN(C2c3ccccc3CC2Cc2ccc(Cl)cc2Cl)CC1 (stereo not given)	Criterion not met
NC1c2ccccc2CCC1Cc1ccc(Cl)cc1Cl (stereo not given)	Criterion not met
NCC1(c2ccc(Cl)cc2)CCN(CCCN2Cc3ccccc3CCc3ccccc32)CC1	Criterion met
Clc1ccc(CC2Cc3ccccc3C2N2CCN(c3ccccc3)CC2)c(Cl)c1 (stereo not given)	Criterion not met
Clc1ccc(C2=CCN(C3c4ccccc4CC3Cc3ccc(Cl)cc3Cl)CC2)cc1 (stereo not given)	Criterion not met
CCN1CCN(C2=Nc3cc(Cl)ccc3Nc3ccccc32)CC1	Criterion met
CCCCN1CCN(C2=Nc3cc(Cl)ccc3Nc3ccccc32)CC1	Criterion met
CSc1ccc2c(c1)C(N1CCN(C)CC1)Cc1ccccc1S2 (stereo not given) [METITEPINE]	Criterion met
COc1ccc(CC2Cc3ccccc3C2N)cc1C (stereo not given)	Criterion not met
OC1(c2ccc(Cl)cc2)CCN(CCCN(Cc2ccc(Cl)cc2)c2ccccc2)CC1	Criterion not met
